- test target: TAFIa (Homo sapiens)
- Construct: purchased American Diagnostica 874TAFIA
- Sequence (Q96IY4 115-423): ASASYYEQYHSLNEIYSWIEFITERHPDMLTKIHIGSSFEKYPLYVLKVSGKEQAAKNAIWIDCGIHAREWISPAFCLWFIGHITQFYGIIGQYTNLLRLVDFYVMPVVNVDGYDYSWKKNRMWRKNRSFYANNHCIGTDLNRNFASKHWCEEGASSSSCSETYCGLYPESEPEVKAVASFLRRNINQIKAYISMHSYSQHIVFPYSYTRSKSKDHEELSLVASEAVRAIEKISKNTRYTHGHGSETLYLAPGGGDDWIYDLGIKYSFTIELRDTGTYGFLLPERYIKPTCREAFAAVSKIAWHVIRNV
- assay notes: TAFIa inhibition (Actichrome plasma TAFI Activity Kit, 15 minutes pre-incubation)
- Format: biochemical
- experimental setup: example compounds; 15 minutes pre-incubation at room temperature; read-out: IC50
Give measured pIC50 for each item. Keep answers brief.
Give bare numbers, as −log10 of the molar value.

// worked examples, pIC50 included
[[record]]
chemical_string = "CC(C)[C@H]1COCCCCOC[C@@H](NC(=O)N[C@@](C)(Cc2ccc(N)nc2)C(=O)O)C(=O)N1"
property_measured = "pIC50"
recorded_number = 9.00

[[record]]
chemical_string = "CC(C)[C@H]1COCCCCOc2ccc(cc2)C[C@@H](NC(=O)N[C@@](C)(C[C@H]2C[C@H](N)C2)C(=O)O)C(=O)N1"
property_measured = "pIC50"
recorded_number = 9.52

[[record]]
chemical_string = "CC(C)[C@H]1COCCCCOc2ccc(cc2)C[C@@H](NC(=O)N[C@@](C)(C[C@@H]2CC[C@@H](N)C2)C(=O)O)C(=O)N1"
property_measured = "pIC50"
recorded_number = 9.00


Attention now turns to another entry.
Lookup result for CC(C)[C@H]1COCCCCOc2ccc(cc2)C[C@@H](NC(=O)N[C@@](C)(Cc2ccc(N)nc2)C(=O)O)C(=O)N1 ; measured pIC50: 9.52

---

- test target: TAFIa (Homo sapiens, UniProt Q96IY4)
- Construct: purchased American Diagnostica 874TAFIA
- Sequence (Q96IY4 115-423): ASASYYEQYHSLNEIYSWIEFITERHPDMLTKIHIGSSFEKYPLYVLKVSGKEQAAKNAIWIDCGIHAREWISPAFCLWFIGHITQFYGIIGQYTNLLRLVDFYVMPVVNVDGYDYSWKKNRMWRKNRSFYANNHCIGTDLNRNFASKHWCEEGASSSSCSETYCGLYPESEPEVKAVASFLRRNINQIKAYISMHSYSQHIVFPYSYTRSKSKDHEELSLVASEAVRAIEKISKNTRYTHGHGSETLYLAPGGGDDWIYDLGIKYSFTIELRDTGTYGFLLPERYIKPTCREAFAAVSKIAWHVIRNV
- assay notes: TAFIa inhibition (Actichrome plasma TAFI Activity Kit, 15 minutes pre-incubation)
- Type: biochemical
- experimental setup: comparison examples according to WO2009146802; 15 minutes pre-incubation at room temperature; read-out: IC50 of Comparison examples
property measured: pIC50
Give bare numbers, as −log10 of the molar value.

Value of pIC50 reported for the compound CC(C)[C@H]1COCCCCOc2ccc(cc2)C[C@@H](NC(=O)N[C@@H](C[C@H]2C[C@H](N)C2)C(=O)O)C(=O)N1 [reference compound] is 8.40
